Source of measurements: patent US20230242496A1

Exercise: for every item that follows, state its recorded pKd.
Target: (His)6-SOX11-DBD protein (Homo sapiens)
Construct: Recombinant (His)6-SOX11-DBD protein was immobilized
Sequence (P35716 49-117 limits assumed): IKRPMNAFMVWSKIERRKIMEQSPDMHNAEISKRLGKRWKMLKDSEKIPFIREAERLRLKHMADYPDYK
Experiment: Surface Plasmon Resonance (SPR) assay
Conditions: immobilized recombinant (His)6-SOX11-DBD, 25° C., compounds 5-40 μM, mean of three experiments
Description: Surface Plasmon Resonance (SPR) Assay Recombinant (His)6-SOX11-DBD protein was immobilized at a flow rate of 10 μl/min for 180 seconds to the right channel of a gold-coated SCR NiHC200M sensor chip (XanTec bioanalytics) placed in a Reichert 2SPR instrument (Reichert Technologies). […] The ka, kd, and KD values were determined from the sensograms for at least 3 concentrations of each compound by curve fitting the data using Reichert's TraceDrawer software. […]
Give bare numbers, as −log10 of the molar value.

Below are 8 compounds. Give each one its pKd.
1. CN(c1ccc(Cl)cc1)S(=O)(=O)c1ccc(NC(=O)c2ccc3c(c2)CCCS3)cc1
2. CC1Sc2ccc(C(=O)Nc3cccc(S(=O)(=O)Nc4cccc(Cl)c4)c3)cc2NC1=O (stereo not drawn)
3. CC1Sc2ccc(C(=O)Nc3cccc(S(=O)(=O)N(C)C)c3)cc2NC1=O (stereo not drawn)
4. O=C(Nc1ccc(CNc2ccccc2)cc1)c1ccc2c(c1)CCCS2
5. Cc1ccccc1N(C)S(=O)(=O)c1ccc(NC(=O)c2ccc3c(c2)CCCS3)cc1
6. CN(c1ccccc1)S(=O)(=O)c1ccc(NC(=O)c2ccc3nncn3c2)cc1
7. CC1Sc2ccc(C(=O)Nc3cccc(S(=O)(=O)Nc4cccc(F)c4)c3)cc2NC1=O (stereo not drawn)
8. O=C(Nc1cccc(CNc2ccccc2)c1)c1ccc2oc(=O)[nH]c2c1

Given back:
1. 4.97
2. 5.50
3. 4.16
4. 4.87
5. 4.99
6. 5.39
7. 6.20
8. 4.74
